# Assay Explanation: Multiple dosing study in dogs: systemic exposure (plasma) to fexinidazole and its metabolites
# Assay type: in vivo, dog
# Experimental Conditions: female, dog, plasma, po, 200 mg/kg/day, Female Dog, 200 mg/kg/day oral, D28, mean ± SD, n = 3
Measurement Label: Cmax (ng/mL)
One number for each entry, in ng/mL.

So what does the record say about Cmax for CSc1ccc(OCc2ncc([N+](=O)[O-])n2C)cc1 [Fexinidazole, fexinidazole] ?
73

* * *

# Assay Explanation: Multiple dosing study in dogs: systemic exposure (plasma) to fexinidazole and its metabolites
# Format: in vivo, dog
# Experimental Conditions: female, dog, plasma, po, 800 mg/kg/day, Female Dog, 800 mg/kg/day oral, D1, mean ± SD, n = 5; read-out: AUC0-t (last)
Measurement Label: AUC(0-t) (ng·h/mL)
Give bare numbers, in ng·h/mL.

So what does the record say about AUC(0-t) for CSc1ccc(OCc2ncc([N+](=O)[O-])n2C)cc1 [Fexinidazole, fexinidazole] ?
895

* * *

# Assay Explanation: Multiple dosing study in dogs: systemic exposure (plasma) to fexinidazole and its metabolites
# Assay type: in vivo, dog
# Experimental Conditions: male, dog, plasma, po, 200 mg/kg/day, Male Dog, 200 mg/kg/day oral, D1, mean ± SD, n = 3
Measurement Label: Cmax (ng/mL)
Numbers only, in ng/mL.

So what does the record say about Cmax for CSc1ccc(OCc2ncc([N+](=O)[O-])n2C)cc1 ?
54.9

* * *

# Assay Explanation: Multiple dosing study in dogs: systemic exposure (plasma) to fexinidazole and its metabolites
# Assay type: in vivo, dog
# Experimental Conditions: male, dog, plasma, po, 50 mg/kg/day, Male Dog, 50 mg/kg/day oral, D14, mean ± SD, n = 3
Measurement Label: Tmax (min)
Answers are plain numbers, in min.

So what does the record say about Tmax for CSc1ccc(OCc2ncc([N+](=O)[O-])n2C)cc1 ?
30

* * *

# Assay Explanation: Multiple dosing study in dogs: systemic exposure (plasma) to fexinidazole and its metabolites
# Type: in vivo, dog
# Experimental Conditions: female, dog, plasma, po, 200 mg/kg/day, Female Dog, 200 mg/kg/day oral, D28, mean ± SD, n = 3; read-out: AUC0-t (last)
Measurement Label: AUC(0-t) (ng·h/mL)
Give bare numbers, in ng·h/mL.

So what does the record say about AUC(0-t) for CSc1ccc(OCc2ncc([N+](=O)[O-])n2C)cc1 ?
377

* * *

# Assay Explanation: Multiple dosing study in dogs: systemic exposure (plasma) to fexinidazole and its metabolites
# Format: in vivo, dog
# Experimental Conditions: dog, plasma, oral, 200 mg/kg/day, 200 mg/kg/day oral, Day 1, 24 hours; read-out: Average plasma concentrations of fexinidazole
Measurement Label: concentration at 24 h (ng/mL)
Numbers only, in ng/mL.

So what does the record say about concentration at 24 h for CSc1ccc(OCc2ncc([N+](=O)[O-])n2C)cc1 ?
13

* * *

# Assay Explanation: Multiple dosing study in dogs: systemic exposure (plasma) to fexinidazole and its metabolites
# Format: in vivo, dog
# Experimental Conditions: male, dog, plasma, po, 50 mg/kg/day, Male Dog, 50 mg/kg/day oral, D1, mean ± SD, n = 3
Measurement Label: Cmax (ng/mL)
Numbers only, in ng/mL.

So what does the record say about Cmax for CSc1ccc(OCc2ncc([N+](=O)[O-])n2C)cc1 ?
31.2

* * *

# Assay Explanation: Multiple dosing study in dogs: systemic exposure (plasma) to fexinidazole and its metabolites
# Format: in vivo, dog
# Experimental Conditions: female, dog, plasma, po, 200 mg/kg/day, Female Dog, 200 mg/kg/day oral, D14, mean ± SD, n = 3
Measurement Label: Cmax (µg/mL)
Answers are plain numbers, in µg/mL.

So what does the record say about Cmax for CSc1ccc(OCc2ncc([N+](=O)[O-])n2C)cc1 [Fexinidazole, fexinidazole] ?
0.0777

* * *

# Assay Explanation: Multiple dosing study in dogs: systemic exposure (plasma) to fexinidazole and its metabolites
# Assay type: in vivo, dog
# Experimental Conditions: dog, plasma, oral, 50 mg/kg/day, 50 mg/kg/day oral, Day 1, 24 hours; read-out: Average plasma concentrations of fexinidazole
Measurement Label: concentration at 24 h

So what does the record say about concentration at 24 h for CSc1ccc(OCc2ncc([N+](=O)[O-])n2C)cc1 ?
< 5 ng/mL

* * *

# Assay Explanation: Multiple dosing study in dogs: systemic exposure (plasma) to fexinidazole and its metabolites
# Assay type: in vivo, dog
# Experimental Conditions: female, dog, plasma, po, 800 mg/kg/day, Female Dog, 800 mg/kg/day oral, D28, mean ± SD, n = 5; read-out: AUC0-t (last)
Measurement Label: AUC(0-t) (ng·h/mL)
Give bare numbers, in ng·h/mL.

So what does the record say about AUC(0-t) for CSc1ccc(OCc2ncc([N+](=O)[O-])n2C)cc1 ?
956

* * *

# Assay Explanation: Multiple dosing study in dogs: systemic exposure (plasma) to fexinidazole and its metabolites
# Format: in vivo, dog
# Experimental Conditions: male, dog, plasma, po, 200 mg/kg/day, Male Dog, 200 mg/kg/day oral, D14, mean ± SD, n = 3; read-out: AUC0-t (last)
Measurement Label: AUC(0-t)

So what does the record say about AUC(0-t) for CSc1ccc(OCc2ncc([N+](=O)[O-])n2C)cc1 ?
0.452 µg·h/mL

* * *

# Assay Explanation: Multiple dosing study in dogs: systemic exposure (plasma) to fexinidazole and its metabolites
# Format: in vivo, dog
# Experimental Conditions: male, dog, plasma, po, 800 mg/kg/day, Male Dog, 800 mg/kg/day oral, D28, mean ± SD, n = 5; read-out: AUC0-t (last)
Measurement Label: AUC(0-t) (ng·h/mL)
Answers are plain numbers, in ng·h/mL.

So what does the record say about AUC(0-t) for CSc1ccc(OCc2ncc([N+](=O)[O-])n2C)cc1 [Fexinidazole, fexinidazole] ?
736

* * *

# Assay Explanation: Multiple dosing study in dogs: systemic exposure (plasma) to fexinidazole and its metabolites
# Assay type: in vivo, dog
# Experimental Conditions: female, dog, plasma, po, 800 mg/kg/day, Female Dog, 800 mg/kg/day oral, D1, mean ± SD, n = 5
Measurement Label: Tmax (h)
Answers are plain numbers, in h.

So what does the record say about Tmax for CSc1ccc(OCc2ncc([N+](=O)[O-])n2C)cc1 ?
1.2

* * *

# Assay Explanation: Multiple dosing study in dogs: systemic exposure (plasma) to fexinidazole and its metabolites
# Format: in vivo, dog
# Experimental Conditions: dog, plasma, oral, 200 mg/kg/day, 200 mg/kg/day oral, Day 1, 4 hours; read-out: Average plasma concentrations of fexinidazole
Measurement Label: concentration at 4 h (ng/mL)
Answers are plain numbers, in ng/mL.

So what does the record say about concentration at 4 h for CSc1ccc(OCc2ncc([N+](=O)[O-])n2C)cc1 ?
22.6

* * *

# Assay Explanation: Multiple dosing study in dogs: systemic exposure (plasma) to fexinidazole and its metabolites
# Format: in vivo, dog
# Experimental Conditions: female, dog, plasma, po, 50 mg/kg/day, Female Dog, 50 mg/kg/day oral, D14, mean ± SD, n = 3
Measurement Label: Cmax (ng/mL)
Give bare numbers, in ng/mL.

So what does the record say about Cmax for CSc1ccc(OCc2ncc([N+](=O)[O-])n2C)cc1 ?
41.9

* * *

# Assay Explanation: Multiple dosing study in dogs: systemic exposure (plasma) to fexinidazole and its metabolites
# Format: in vivo, dog
# Experimental Conditions: male, dog, plasma, po, 200 mg/kg/day, Male Dog, 200 mg/kg/day oral, D14, mean ± SD, n = 3
Measurement Label: Cmax (ng/mL)
Answers are plain numbers, in ng/mL.

So what does the record say about Cmax for CSc1ccc(OCc2ncc([N+](=O)[O-])n2C)cc1 [Fexinidazole, fexinidazole] ?
78.1

* * *

# Assay Explanation: Multiple dosing study in dogs: systemic exposure (plasma) to fexinidazole and its metabolites
# Format: in vivo, dog
# Experimental Conditions: female, dog, plasma, po, 200 mg/kg/day, Female Dog, 200 mg/kg/day oral, D14, mean ± SD, n = 3
Measurement Label: Tmax
Please state the value followed by its unit.

So what does the record say about Tmax for CSc1ccc(OCc2ncc([N+](=O)[O-])n2C)cc1 [Fexinidazole, fexinidazole] ?
2 h

* * *

# Assay Explanation: Multiple dosing study in dogs: systemic exposure (plasma) to fexinidazole and its metabolites
# Format: in vivo, dog
# Experimental Conditions: male, dog, plasma, po, 200 mg/kg/day, Male Dog, 200 mg/kg/day oral, D28, mean ± SD, n = 3; read-out: AUC0-t (last)
Measurement Label: AUC(0-t) (ng·h/mL)
Answers are plain numbers, in ng·h/mL.

So what does the record say about AUC(0-t) for CSc1ccc(OCc2ncc([N+](=O)[O-])n2C)cc1 [Fexinidazole, fexinidazole] ?
395

* * *

# Assay Explanation: Multiple dosing study in dogs: systemic exposure (plasma) to fexinidazole and its metabolites
# Type: in vivo, dog
# Experimental Conditions: female, dog, plasma, po, 50 mg/kg/day, Female Dog, 50 mg/kg/day oral, D28, mean ± SD, n = 3; read-out: AUC0-t (last)
Measurement Label: AUC(0-t) (ng·h/mL)
Numbers only, in ng·h/mL.

So what does the record say about AUC(0-t) for CSc1ccc(OCc2ncc([N+](=O)[O-])n2C)cc1 ?
87.1

Values compiled from patent US9585871B2.
